Where do the numbers come from? From patent US20260098072A1.

# Target System: human melanocortin 3 receptor (MC3R) (human, UniProt P41968 1-323)
# Sequence (P41968 whole entry): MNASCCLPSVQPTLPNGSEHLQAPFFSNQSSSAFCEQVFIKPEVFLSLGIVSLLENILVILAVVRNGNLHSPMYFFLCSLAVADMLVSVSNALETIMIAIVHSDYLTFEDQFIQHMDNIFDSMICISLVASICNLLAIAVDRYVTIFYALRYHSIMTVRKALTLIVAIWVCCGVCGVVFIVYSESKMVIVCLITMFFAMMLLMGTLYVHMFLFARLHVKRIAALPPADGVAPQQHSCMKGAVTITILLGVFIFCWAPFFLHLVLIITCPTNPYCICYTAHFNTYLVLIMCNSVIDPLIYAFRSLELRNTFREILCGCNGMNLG
# Procedure Details: cell-based or functional assay
Positions of bridges follow the written chain, without caps; N, C: chain ends. Non-standard residues stand in square brackets, D forms with d. No end group written: not given here. d2Nal = N[C@H](Cc1ccc2ccccc2c1)C(=O)O; Nle = CCCC[C@H](N)C(=O)O
The entries below come with measured Max Activation % values attached.
Answer with a number only, understood to be in %.

Worked cases, answers included:
Binder | Max Activation % / %
LPFFRWVP [B4] | 7.81
VDPWRWKVP [C9] | 1.24
Ac-[Nle]P[d2Nal]RW[dV][dP]-NH2 (SMILES CCCC[C@H](NC(C)=O)C(=O)N1CCC[C@H]1C(=O)N[C@H](Cc1ccc2ccccc2c1)C(=O)N[C@@H](CCCNC(=N)N)C(=O)N[C@@H](Cc1c[nH]c2ccccc12)C(=O)N[C@@H](C(=O)N1CCC[C@@H]1C(N)=O)C(C)C) [A2] | 7.92
IPFFRWVP [B5] | 0.14
Ac-LDPFFRWKVP-NH2 (lactam 2-8; SMILES CC(=O)N[C@@H](CC(C)C)C(=O)N[C@H]1CC(=O)NCCCC[C@@H](C(=O)N[C@H](C(=O)N2CCC[C@H]2C(N)=O)C(C)C)NC(=O)[C@H](Cc2c[nH]c3ccccc23)NC(=O)[C@H](CCCNC(=N)N)NC(=O)[C@H](Cc2ccccc2)NC(=O)[C@H](Cc2ccccc2)NC(=O)[C@@H]2CCCN2C1=O) [B2] | 10.3
Ac-[Nle]DP[d2Nal]RWK[dV][dP]-NH2 (lactam 2-7) [TCMCB07] | 112
VPFFRWVP [B6] | 5
LDPWRWKVP (lactam 2-7) [C3] | 3.32

The reported Max Activation % of the binder Ac-[Nle]DPH[d2Nal]RWK[dP][dV]-NH2 (lactam 2-8; SMILES CCCC[C@H](NC(C)=O)C(=O)N[C@H]1CC(=O)NCCCC[C@@H](C(=O)N2CCC[C@@H]2C(=O)N[C@@H](C(N)=O)C(C)C)NC(=O)[C@H](Cc2c[nH]c3ccccc23)NC(=O)[C@H](CCCNC(=N)N)NC(=O)[C@@H](Cc2ccc3ccccc3c2)NC(=O)[C@H](Cc2c[nH]cn2)NC(=O)[C@@H]2CCCN2C1=O) [D5] was 24.6
